target: human GCG receptor (human, UniProt P47871 26-477); assay: cell-based or functional assay
Sequence (P47871 26-477): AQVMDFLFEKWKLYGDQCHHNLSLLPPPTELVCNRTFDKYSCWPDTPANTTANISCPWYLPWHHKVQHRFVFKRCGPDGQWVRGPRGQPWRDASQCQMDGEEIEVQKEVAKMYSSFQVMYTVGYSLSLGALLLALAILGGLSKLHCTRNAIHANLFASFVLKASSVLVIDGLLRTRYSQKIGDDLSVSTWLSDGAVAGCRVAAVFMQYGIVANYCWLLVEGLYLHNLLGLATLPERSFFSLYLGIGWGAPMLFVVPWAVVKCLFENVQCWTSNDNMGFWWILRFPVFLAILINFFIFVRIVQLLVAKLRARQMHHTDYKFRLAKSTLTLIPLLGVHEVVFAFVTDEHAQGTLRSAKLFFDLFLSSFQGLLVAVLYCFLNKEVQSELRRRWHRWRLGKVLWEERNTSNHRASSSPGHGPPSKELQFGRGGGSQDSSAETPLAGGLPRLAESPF
Positions of bridges follow the written chain, without caps; N, C: chain ends. Non-standard residues stand in square brackets, D forms with d. No end group written: not given here. *: point of attachment. Acetyl(2-(4-imidazolyl)) = O=C(Cc1c[nH]cn1)*; Aib = CC(C)(N)C(=O)O
In vitro activity (%) compared with native peptide: vs Glucagon reference
Measured Attribute: In vitro activity (%) compared with native peptide: vs Glucagon

{"Binder": "{Acetyl(2-(4-imidazolyl))}-[Aib]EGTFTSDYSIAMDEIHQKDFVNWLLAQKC (bridge 15-19; not fully specified) [triple agonist of SEQ ID NO: 90]", "Relation Sign": "<", "Reported Value": 0.1}
{"Binder": "H[Aib]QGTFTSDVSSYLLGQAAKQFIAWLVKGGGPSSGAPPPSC (not fully specified) [triple agonist of SEQ ID NO: 3]", "Relation Sign": "<", "Reported Value": 0.1}
{"Binder": "HGQGTFTSDCSKYLDEQHAQEFVAWLLAGGPSSGAPPPS (ends and bridges not checked) [triple agonist of SEQ ID NO: 46]", "Relation Sign": "<", "Reported Value": 0.1}
{"Binder": "H[Aib]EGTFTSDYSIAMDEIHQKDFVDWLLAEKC (bridge 16-20; not fully specified) [triple agonist of SEQ ID NO: 80]", "Relation Sign": "=", "Reported Value": 0}
{"Binder": "H[Aib]QGTFTSDVSSYLDGQAAKEFIAWLVKGC (not fully specified) [triple agonist of SEQ ID NO: 1]", "Relation Sign": "<", "Reported Value": 0.1}
{"Binder": "Y[Aib]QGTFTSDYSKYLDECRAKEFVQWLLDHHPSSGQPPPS (bridge 16-20; not fully specified) [triple agonist of SEQ ID NO: 21]", "Relation Sign": "=", "Reported Value": 267}
{"Binder": "H[Aib]QGTFTSDVSSYLDGQAQKEFIAWLVKGC (not fully specified) [triple agonist of SEQ ID NO: 2]", "Relation Sign": "<", "Reported Value": 0.1}
{"Binder": "H[Aib]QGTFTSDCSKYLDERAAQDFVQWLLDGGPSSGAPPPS (not fully specified) [triple agonist of SEQ ID NO: 25]", "Relation Sign": "=", "Reported Value": 0.1}
{"Binder": "{Acetyl(2-(4-imidazolyl))}-[Aib]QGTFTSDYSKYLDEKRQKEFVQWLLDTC (bridge 15-19; not fully specified) [triple agonist of SEQ ID NO: 82]", "Relation Sign": "=", "Reported Value": 1.1}
{"Binder": "Y[Aib]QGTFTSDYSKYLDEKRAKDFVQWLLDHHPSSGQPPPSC (bridge 16-20; not fully specified) [triple agonist of SEQ ID NO: 76]", "Relation Sign": "=", "Reported Value": 47.6}
